Organism: Homo sapiens
Assay: Selectivity ratio of Ki for human recombinant GABAA alpha-2-beta-2-gamma-2S receptor to Ki for human recombinant GABAA alpha-1-beta-2-gamma-2S receptor
Answer each item with its documented Ratio Ki.
Numbers only.

State, in one line, measured Ratio Ki of CCCCC(=O)c1c[nH]c2ccc(Cc3ccncc3)cc2c1=O
7

State, in one line, measured Ratio Ki of CCCCC(=O)c1c[nH]c2ccc(Cc3ccccc3)cc2c1=O
3

State, in one line, measured Ratio Ki of CCCC(=O)c1c[nH]c2ccc(Cc3ccccc3)cc2c1=O
7

Batch request: Ratio Ki per item, same order as input.
1. CCCCC(=O)c1c[nH]c2ccc(CCCc3ccccc3)cc2c1=O
2. CCCCC(=O)c1c[nH]c2ccc(Cc3ccc4ccccc4c3)cc2c1=O
3. CCCCC(=O)c1c[nH]c2ccc(CCc3ccccc3)cc2c1=O

1. 5
2. 8
3. 3

Batch request: Ratio Ki per item, same order as input.
1. CCCCC(=O)c1c[nH]c2ccc(CC)cc2c1=O
2. CCc1ccc2[nH]cc(C(=O)CC3CCCC3)c(=O)c2c1

4
6

* * *

Target: GABA-A receptor; alpha-1/beta-2/gamma-2 (Homo sapiens, UniProt P14867+P18507+P47870)
Sequence (P14867 whole entry): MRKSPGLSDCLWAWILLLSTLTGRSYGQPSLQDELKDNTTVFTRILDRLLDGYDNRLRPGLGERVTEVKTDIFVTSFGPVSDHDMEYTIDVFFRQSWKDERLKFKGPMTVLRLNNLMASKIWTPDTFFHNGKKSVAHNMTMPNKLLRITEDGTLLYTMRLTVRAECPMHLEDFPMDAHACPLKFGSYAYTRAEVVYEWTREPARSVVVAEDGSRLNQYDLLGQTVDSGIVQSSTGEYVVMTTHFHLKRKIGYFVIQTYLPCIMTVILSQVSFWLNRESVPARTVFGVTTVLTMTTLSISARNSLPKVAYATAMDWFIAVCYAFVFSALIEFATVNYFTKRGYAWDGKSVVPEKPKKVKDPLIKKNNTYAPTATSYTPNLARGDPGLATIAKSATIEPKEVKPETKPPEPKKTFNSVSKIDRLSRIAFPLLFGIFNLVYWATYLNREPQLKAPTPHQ
Sequence (P47870 whole entry): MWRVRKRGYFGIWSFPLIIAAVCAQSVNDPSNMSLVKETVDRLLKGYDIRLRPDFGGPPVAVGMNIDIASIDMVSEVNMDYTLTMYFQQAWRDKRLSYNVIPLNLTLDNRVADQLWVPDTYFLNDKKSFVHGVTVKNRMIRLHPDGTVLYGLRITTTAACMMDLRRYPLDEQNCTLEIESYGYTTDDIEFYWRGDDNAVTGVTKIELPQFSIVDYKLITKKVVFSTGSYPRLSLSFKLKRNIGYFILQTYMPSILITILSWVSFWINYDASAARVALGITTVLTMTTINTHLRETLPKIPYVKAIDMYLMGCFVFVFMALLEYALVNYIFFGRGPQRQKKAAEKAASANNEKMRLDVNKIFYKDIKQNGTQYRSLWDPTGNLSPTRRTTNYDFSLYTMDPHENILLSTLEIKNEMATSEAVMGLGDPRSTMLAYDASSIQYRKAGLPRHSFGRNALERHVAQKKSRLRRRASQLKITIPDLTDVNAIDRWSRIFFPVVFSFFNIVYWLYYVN
Sequence (P18507 whole entry): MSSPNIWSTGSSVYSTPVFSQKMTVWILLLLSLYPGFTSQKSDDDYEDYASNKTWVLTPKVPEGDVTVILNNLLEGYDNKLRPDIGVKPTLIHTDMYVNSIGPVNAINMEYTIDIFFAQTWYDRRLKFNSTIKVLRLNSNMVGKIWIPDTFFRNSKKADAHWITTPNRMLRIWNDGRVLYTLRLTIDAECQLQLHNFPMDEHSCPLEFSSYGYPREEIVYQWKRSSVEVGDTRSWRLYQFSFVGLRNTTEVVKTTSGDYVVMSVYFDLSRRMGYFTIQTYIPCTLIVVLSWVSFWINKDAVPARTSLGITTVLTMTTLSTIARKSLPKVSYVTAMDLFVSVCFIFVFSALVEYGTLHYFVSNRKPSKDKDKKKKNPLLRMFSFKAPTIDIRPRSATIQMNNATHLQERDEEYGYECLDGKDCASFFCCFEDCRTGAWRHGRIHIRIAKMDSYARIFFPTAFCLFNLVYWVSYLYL
Test: Displacement of [3H]flumazenil from human recombinant GABAA alpha-1-beta-2-gamma-2S receptor expressed in HEK293 cells
outcomeMeasure: pKi
Numbers only, as −log10 of the molar value.

State, in one line, measured pKi of O=C(CC1CCCC1)c1c[nH]c2ccc(Cc3ccccc3)cc2c1=O
9.29

Batch request: pKi per item, same order as input.
1. CCCCC(=O)c1c[nH]c2ccc(Cc3cccnc3)cc2c1=O
2. CCc1ccc2[nH]cc(C(=O)CC3CCCC3)c(=O)c2c1
3. CCCCC(=O)c1c[nH]c2ccc(CCc3ccccc3)cc2c1=O
4. CCCCC(=O)c1c[nH]c2ccc(Cc3ccccn3)cc2c1=O
5. CCCCC(=O)c1c[nH]c2ccc(CC)cc2c1=O
6. CCCC(=O)c1c[nH]c2ccc(Cc3ccccc3)cc2c1=O

1. 9.92
2. 8.29
3. 9.28
4. 9.85
5. 9.42
6. 9.92

Batch request: pKi per item, same order as input.
1. O=C(CC1CCCC1)c1c[nH]c2ccc(Cc3cccnc3)cc2c1=O
2. CCCCC(=O)c1c[nH]c2ccccc2c1=O
3. CCCCC(=O)c1c[nH]c2ccc(Cc3ccc4ccccc4c3)cc2c1=O
4. CCOC(=O)c1cnc2ccc(Cc3ccccc3)cc2c1O
5. CCCCC(=O)c1c[nH]c2ccc(Cc3ccccc3)cc2c1=O

[9.06, 9.01, 8.57, 9.57, 9.92]

These measurements were taken from ChEMBL document CHEMBL1157503.
